# System: Escherichia coli TOP10;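 also: peptides expressed intracellularly from a pBAD plasmid library in pooled LB shake-flask culture, induced with 0.3% L-arabinose, DNA abundance read by NGS, three biological replicates, DESeq2 with apeglm shrinkage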
# TEST_DESCRIPTION: shrunken log2 fold change of peptide-encoding DNA abundance (4.5 h post-induction vs induction); higher = less antimicrobial activity (less host growth inhibition)
# CONDITIONS: time post-induction: 4.5 h; library: site-saturation at positions 5, 18, 19, 20
I would appreciate it if you labelled entries Yes when shrunken log2 fold change is -0.01 or higher, otherwise No.

Input line: I'd appreciate it if you could say whether RRIRKRPPRLPRPRPRPIYMPRP has shrunken log2 fold change at least equal to -0.01.
Output line: No

Input line: Query RRIRFRPPRLPRPRPRPSVHPRP next
Output line: No

Input line: Proceed to RRIRRRPPRLPRPRPRPWNQPRP
Output line: Yes

Input line: Let us now turn to RRIRKRPPRLPRPRPRPAYRPRP
Output line: Yes

Input line: Next up: RRIRVRPPRLPRPRPRPSIDPRP
Output line: No

Input line: For RRIRDRPPRLPRPRPRPYCPPRP then?
Output line: No

Input line: Next sequence up: RRIRARPPRLPRPRPRPNQRPRP
Output line: Yes

Input line: Now the same for RRIRMRPPRLPRPRPRPDSPPRP
Output line: Yes

Input line: Ok, now RRIRPRPPRLPRPRPRPSCVPRP
Output line: No

Input line: Now consider RRIRNRPPRLPRPRPRPAPTPRP .
Output line: Yes

Input line: Subsequent entry: RRIRFRPPRLPRPRPRPRHRPRP
Output line: Yes

Input line: Next sequence: RRIRERPPRLPRPRPRPWMPPRP
Output line: No

Input line: Can you handle RRIRVRPPRLPRPRPRPYVVPRP next?
Output line: No

Input line: Same question, RRIRSRPPRLPRPRPRPIDKPRP this time
Output line: No

Input line: And what about the sequence RRIRDRPPRLPRPRPRPDRDPRP ?
Output line: No

Input line: Same question, RRIRWRPPRLPRPRPRPIFWPRP this time
Output line: Yes

Input line: Let us now turn to RRIRLRPPRLPRPRPRPSLQPRP
Output line: No

Input line: Same lookup for RRIRWRPPRLPRPRPRPQNIPRP , please.
Output line: No

Input line: Similarly, RRIRDRPPRLPRPRPRPILAPRP ?
Output line: Yes

Input line: For RRIRCRPPRLPRPRPRPKFTPRP then?
Output line: No

Input line: Also RRIRHRPPRLPRPRPRPCKVPRP ?
Output line: No

Input line: Also, RRIRKRPPRLPRPRPRPHIIPRP please.
Output line: Yes

Input line: Consider next the sequence RRIRQRPPRLPRPRPRPIVQPRP in the same way.
Output line: No

Input line: Follow-up item: RRIRTRPPRLPRPRPRPWPGPRP
Output line: Yes

Input line: Please answer likewise for RRIRPRPPRLPRPRPRPLTMPRP
Output line: No

Input line: And then RRIRERPPRLPRPRPRPNQVPRP , what is it?
Output line: No

Input line: Also check RRIRKRPPRLPRPRPRPYVVPRP
Output line: No

Input line: Next sequence up: RRIRGRPPRLPRPRPRPPWDPRP
Output line: Yes

Input line: Can you check RRIRCRPPRLPRPRPRPCNLPRP next?
Output line: No

Input line: Can you handle RRIRCRPPRLPRPRPRPTYNPRP next?
Output line: No

Input line: One more sequence: RRIRMRPPRLPRPRPRPSGWPRP
Output line: Yes

Input line: How about RRIRIRPPRLPRPRPRPMKHPRP ?
Output line: No

Input line: Now try RRIRVRPPRLPRPRPRPWHMPRP .
Output line: No

Input line: And RRIRVRPPRLPRPRPRPRIEPRP ?
Output line: Yes

Input line: Same lookup for RRIRRRPPRLPRPRPRPYKLPRP , please.
Output line: No

Input line: Item: RRIRRRPPRLPRPRPRPELVPRP
Output line: Yes

Input line: What about this sequence? RRIRDRPPRLPRPRPRPPSHPRP
Output line: No

Input line: RRIRLRPPRLPRPRPRPTLYPRP , same question.
Output line: Yes

Input line: What would you report for RRIRPRPPRLPRPRPRPRAMPRP ?
Output line: Yes

Input line: Item: RRIRVRPPRLPRPRPRPQFDPRP
Output line: Yes

Input line: For RRIRQRPPRLPRPRPRPMAFPRP then?
Output line: No

Input line: Moving on to RRIRDRPPRLPRPRPRPQRCPRP
Output line: Yes

Input line: Now try RRIRQRPPRLPRPRPRPHMIPRP .
Output line: No

Input line: Follow-up item: RRIRKRPPRLPRPRPRPFMHPRP
Output line: Yes

Input line: Thanks! And RRIRNRPPRLPRPRPRPFESPRP ?
Output line: Yes

Input line: Check RRIRIRPPRLPRPRPRPGQGPRP too.
Output line: No

Input line: Also, RRIRIRPPRLPRPRPRPYLYPRP please.
Output line: No

Input line: What would you report for RRIRSRPPRLPRPRPRPGNHPRP ?
Output line: No

Input line: Follow-up entry: RRIRRRPPRLPRPRPRPIPCPRP
Output line: Yes

Input line: And RRIRFRPPRLPRPRPRPNYPPRP ?
Output line: No

Input line: Likewise for RRIRVRPPRLPRPRPRPLKAPRP ?
Output line: Yes

Input line: How about this sequence: RRIRFRPPRLPRPRPRPFMMPRP
Output line: No

Input line: // next record RRIRNRPPRLPRPRPRPPHWPRP
Output line: Yes

Input line: # iterate: RRIRTRPPRLPRPRPRPPKNPRP
Output line: No

Input line: Cool, now RRIRMRPPRLPRPRPRPPDTPRP
Output line: Yes

Input line: Moving on to RRIRFRPPRLPRPRPRPYRYPRP
Output line: Yes

Input line: Also, RRIRCRPPRLPRPRPRPPQVPRP please.
Output line: Yes

Input line: Consider next the sequence RRIRCRPPRLPRPRPRPPMSPRP in the same way.
Output line: No

Input line: Now consider RRIRPRPPRLPRPRPRPEECPRP and answer again.
Output line: No

Input line: For RRIRHRPPRLPRPRPRPCKGPRP then?
Output line: No

Input line: Record: RRIRNRPPRLPRPRPRPDRCPRP
Output line: No

Input line: Same lookup for RRIRFRPPRLPRPRPRPDCSPRP , please.
Output line: Yes
